FYI, the data here is from ChEMBL document CHEMBL3102842.

Form field: selectivity ratio at 24 h (one value per entry).
# experiment-summary: Therapeutic index, ratio of TC50 for mouse RAW264.7 cells to EC50 for Leishmania infantum zymodeme MON-1 promastigotes after 24 hrs
# assay-context: read-out: TI

[
  {
    "molecule": "O=C1C[C@@H](c2ccccc2)C2(C(=O)Nc3ccccc32)[C@H](c2ccccc2)C1",
    "selectivity ratio at 24 h": 2.9
  },
  {
    "molecule": "COc1ccc([C@H](CC(=O)c2ccccc2)[C@H]2C(=O)Nc3ccccc32)cc1 (relative stereo)",
    "selectivity ratio at 24 h": 1.3
  },
  {
    "molecule": "O=C1C[C@@H](c2ccc(Cl)cc2)C2(C(=O)Nc3ccccc32)[C@H](c2ccc(Cl)cc2)C1",
    "selectivity ratio at 24 h": 1.8
  },
  {
    "molecule": "O=C(/C=C/c1ccccc1)c1ccccc1 [CHALCONE]",
    "selectivity ratio at 24 h": 4.9
  },
  {
    "molecule": "C[C@@H]1[C@H](O)[C@@H](C)/C=C/C=C/C=C/C=C/C=C/C=C/C=C/[C@H](O[C@@H]2O[C@H](C)[C@@H](O)[C@H](N)[C@@H]2O)C[C@@H]2O[C@](O)(C[C@@H](O)C[C@@H](O)[C@H](O)CC[C@@H](O)C[C@@H](O)CC(=O)O[C@H]1C)C[C@H](O)[C@H]2C(=O)O [AMPHOTERICIN B]",
    "selectivity ratio at 24 h": 35.1
  },
  {
    "molecule": "Cc1ccc([C@@H]2CC(=O)C[C@@H](c3ccc(C)cc3)C23C(=O)Nc2ccccc23)cc1",
    "selectivity ratio at 24 h": 10.2
  },
  {
    "molecule": "O=C1Cc2ccccc2N1 [OXINDOLE]",
    "selectivity ratio at 24 h": 0.5
  }
]

----------
# experiment-summary: Therapeutic index, ratio of TC50 for mouse RAW264.7 cells to EC50 for Leishmania infantum zymodeme MON-1 promastigotes after 48 hrs
# assay-context: read-out: TI
selectivity ratio at 48 h values by entry

[
  {
    "compound": "C[C@@H]1[C@H](O)[C@@H](C)/C=C/C=C/C=C/C=C/C=C/C=C/C=C/[C@H](O[C@@H]2O[C@H](C)[C@@H](O)[C@H](N)[C@@H]2O)C[C@@H]2O[C@](O)(C[C@@H](O)C[C@@H](O)[C@H](O)CC[C@@H](O)C[C@@H](O)CC(=O)O[C@H]1C)C[C@H](O)[C@H]2C(=O)O",
    "selectivity ratio at 48 h": 8.2
  },
  {
    "compound": "O=C(CC(c1cccc(Cl)c1)C1C(=O)Nc2ccccc21)c1ccccc1 (configuration not stated)",
    "selectivity ratio at 48 h": 8.8
  },
  {
    "compound": "COc1ccc([C@@H]2CC(=O)C[C@@H](c3ccc(OC)cc3)C23C(=O)Nc2ccccc23)cc1",
    "selectivity ratio at 48 h": 3.1
  },
  {
    "compound": "O=C(CC(c1ccc(Cl)cc1)C1C(=O)Nc2ccccc21)c1ccccc1 (configuration not stated)",
    "selectivity ratio at 48 h": 3
  },
  {
    "compound": "O=C1C[C@@H](c2ccccc2)C2(C(=O)Nc3ccccc32)[C@H](c2ccccc2)C1",
    "selectivity ratio at 48 h": 9.4
  },
  {
    "compound": "COc1ccc([C@H](CC(=O)c2ccccc2)[C@H]2C(=O)Nc3ccccc32)cc1 (relative stereo)",
    "selectivity ratio at 48 h": 2.5
  },
  {
    "compound": "O=C(C[C@@H](c1ccccc1)[C@H]1C(=O)Nc2ccccc21)c1ccccc1 (relative stereo)",
    "selectivity ratio at 48 h": 10.6
  }
]

----------
# experiment-summary: Cytotoxicity against mouse RAW264.7 cells after 24 hrs by MTT assay
# Type: cell-based
# assay-context: read-out: TC50
Listed below: CC50 at 24 h values for each entry.
endpoint-label: CC50 at 24 h (µg/mL)

[
  {
    "compound": "O=C1C[C@@H](c2ccccc2)C2(C(=O)Nc3ccccc32)[C@H](c2ccccc2)C1",
    "test-value": 88.8
  },
  {
    "compound": "O=C(/C=C/c1ccccc1)c1ccccc1",
    "test-value": 28.1
  },
  {
    "compound": "O=C(CC(c1cccc(Cl)c1)C1C(=O)Nc2ccccc21)c1ccccc1 (stereo not given)",
    "test-value": 193
  },
  {
    "compound": "O=C1C[C@@H](c2ccc(Cl)cc2)C2(C(=O)Nc3ccccc32)[C@H](c2ccc(Cl)cc2)C1",
    "test-value": 44
  },
  {
    "compound": "O=C(C[C@@H](c1ccccc1)[C@H]1C(=O)Nc2ccccc21)c1ccccc1 (relative stereo)",
    "test-value": 71.6
  }
]

----------
# experiment-summary: Therapeutic index, ratio of TC50 for mouse RAW264.7 cells to EC50 for Leishmania infantum zymodeme MON-1 promastigotes after 48 hrs
# assay-context: read-out: TI
endpoint-label: selectivity ratio at 48 h

[
  {
    "molecule": "Cc1ccc([C@H](CC(=O)c2ccccc2)[C@H]2C(=O)Nc3ccccc32)cc1 (relative stereo)",
    "endpoint-label": "selectivity ratio at 48 h",
    "test-value": 1.3
  },
  {
    "molecule": "O=C(/C=C/c1ccccc1)c1ccccc1",
    "endpoint-label": "selectivity ratio at 48 h",
    "test-value": 20.1
  },
  {
    "molecule": "Cc1ccc([C@@H]2CC(=O)C[C@@H](c3ccc(C)cc3)C23C(=O)Nc2ccccc23)cc1",
    "endpoint-label": "selectivity ratio at 48 h",
    "test-value": 18.7
  },
  {
    "molecule": "O=C1C[C@@H](c2ccc(Cl)cc2)C2(C(=O)Nc3ccccc32)[C@H](c2ccc(Cl)cc2)C1",
    "endpoint-label": "selectivity ratio at 48 h",
    "test-value": 4.2
  },
  {
    "molecule": "O=C1Cc2ccccc2N1",
    "endpoint-label": "selectivity ratio at 48 h",
    "test-value": 2.1
  }
]

----------
# experiment-summary: Cytotoxicity against mouse RAW264.7 cells after 48 hrs by MTT assay
# Assay type: cell-based
# assay-context: read-out: TC50

[
  {
    "compound": "O=C1C[C@@H](c2ccccc2)C2(C(=O)Nc3ccccc32)[C@H](c2ccccc2)C1",
    "CC50 at 48 h / µg/mL": 65.2
  },
  {
    "compound": "O=C1Cc2ccccc2N1",
    "CC50 at 48 h / µg/mL": 154
  },
  {
    "compound": "O=C(CC(c1cccc(Cl)c1)C1C(=O)Nc2ccccc21)c1ccccc1 (stereo not given)",
    "CC50 at 48 h / µg/mL": 116
  },
  {
    "compound": "COc1ccc([C@H](CC(=O)c2ccccc2)[C@H]2C(=O)Nc3ccccc32)cc1 (relative stereo)",
    "CC50 at 48 h / µg/mL": 35.4
  },
  {
    "compound": "Cc1ccc([C@@H]2CC(=O)C[C@@H](c3ccc(C)cc3)C23C(=O)Nc2ccccc23)cc1",
    "CC50 at 48 h / µg/mL": 38.6
  }
]
